Source of measurements: PubChem BioAssay (NCI)

Tested on: A498 renal
Test: NCI tumour cell line growth inhibition, 48 h
PROPERTY_NAME: TGI

O=C1CSC(c2ccccc2[N+](=O)[O-])N1c1ccc(-c2ccc(-n3c(-c4ccccc4)nc4ccccc4c3=O)cc2)cc1 (stereo unspecified) ... > 100 µM
CC(=O)NC1(c2cc3ccccc3s2)CCCCCC1 ... > 100 µM
CC1CCCC(C(O)CC2CC(=O)NC(=O)C2)C1O (stereo unspecified) ... > 100 µM

List the reported TGI of each molecule below.
1. N#Cc1c(N2CCC(O)C2)c2ccccc2n2c1nc1ccccc12 (stereo unspecified)
2. CC(=O)OCC1OC(Nn2c(=O)[nH]c3ccccc3c2=O)C(OC(C)=O)C(OC(C)=O)C1OC(C)=O (stereo unspecified)
3. COC1CC(COCc2ccccc2)CC(OC)O1 (stereo unspecified)
4. Cc1c2c(c(O)c3c(O)cccc13)C(=O)C1(O)C(O)=C(C(=O)NCNc3ccc(C(N)=O)cn3)C(=O)C(N(C)C)C1C2 (stereo unspecified)
5. NCCCCCCCn1c2c(c3ccccc3c1=O)C(=O)c1ccccc1-2
6. O=c1c2cc3c(=O)n4c(cc(-c5ccccc5)c5cc(Cl)ccc54)nc3cc2nc2cc(-c3ccccc3)c3cc(Cl)ccc3n12

output:
1: 95.5 µM; 2: > 100 µM; 3: > 100 µM; 4: 9.33 µM; 5: 11.8 µM; 6: > 100 µM

List the reported TGI of each molecule below.
1. COc1cc(-c2cc(=O)c3c(O)c(CC=C(C)C)c(O)cc3o2)ccc1O
2. O=c1ccn(COC(COCc2ccccc2)COCc2ccccc2)c(=O)[nH]1
3. COCc1cc(C(=O)Nc2cc([C@H]3CC[C@@H](OC(=O)NC(C)C)C3)[nH]n2)n(C)n1
4. C=C(CCC/C(C)=C/C=C/[C@@H](C)CCCc1ccoc1)C[C@@H]1OC(=O)[C@H](C)[C@@H]1O
5. CCOC(=O)C1(C(=O)OCC)OC(C)=NC1(C(=O)OC)C(=O)OC
6. COC(=O)c1ccc(N=NN(C)COc2ccc(Br)cc2)cc1
7. CC(=O)OC[C@@H](COC(=O)/C=C/c1ccc(O)cc1)OC1OC(CO)C(O)C(O)C1O (stereo partly specified)

output:
["> 50 µM", "> 100 µM", "34.5 µM", "15.3 µM", "> 100 µM", "> 100 µM", "> 100 µM"]

List the reported TGI of each molecule below.
1. O=C(NCCCO)c1cc(Cl)ccc1O
2. CC(C)=CC(Cc1ccccc1)S(=O)(=O)c1nc2ccccc2s1 (stereo unspecified)
3. COc1cc(NCCC2CCCCN2)c2ncccc2c1 (stereo unspecified)

output:
1. 12.7 µM
2. 35.5 µM
3. > 89.6 µM

List the reported TGI of each molecule below.
1. CCOC(=O)C1c2[nH]c3ccccc3c2CCN1C(=O)c1ccc(OC)o1 (stereo unspecified)
2. CC[C@@]1(C)CCC2c3ccc(O)cc3CC[C@H]2C1C (stereo partly specified)

output:
> 10 µM
34 µM
